molecular target: human insulin-like growth factor-II (IGF-II) (human, UniProt P01344 25-91); assay: cell-based or functional assay
Label satisfied when EC50 (nM), mean (n = 2), IGF-II Proliferation Assay, NIH3T3/hIGF-IR cells is strictly below 20 nM; otherwise label not satisfied.

1. mAb 7.34.1 (antibody, V domains shown, Fully human XenoMouse hybridoma mAb, lambda light chain (V1-13/JL2); also called ATCC PTA-7423) VH: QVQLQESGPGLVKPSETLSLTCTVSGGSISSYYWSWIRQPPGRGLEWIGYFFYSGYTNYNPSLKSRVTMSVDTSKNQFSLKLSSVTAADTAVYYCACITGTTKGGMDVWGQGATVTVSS VL: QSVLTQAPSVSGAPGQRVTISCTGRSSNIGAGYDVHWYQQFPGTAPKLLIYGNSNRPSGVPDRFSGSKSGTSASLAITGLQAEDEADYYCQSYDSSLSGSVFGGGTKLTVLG; satisfied
2. mAb 7.159.2 (antibody, V domains shown, Fully human XenoMouse hybridoma mAb, lambda light chain (V1-19/JL2); Sister clones 7.159.1 and 7.159.2 are said to be identical; also called 7.159.1; 7_159_1) VH: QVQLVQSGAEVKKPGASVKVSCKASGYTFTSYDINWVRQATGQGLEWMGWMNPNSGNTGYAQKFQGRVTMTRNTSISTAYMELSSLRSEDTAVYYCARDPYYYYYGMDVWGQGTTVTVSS VL: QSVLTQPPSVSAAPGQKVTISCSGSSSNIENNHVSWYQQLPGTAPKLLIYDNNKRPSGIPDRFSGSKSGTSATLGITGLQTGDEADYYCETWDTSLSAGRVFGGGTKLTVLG; satisfied
3. mAb 7.251.3 (antibody, V domains shown, Fully human XenoMouse hybridoma mAb, lambda light chain (V1-13/JL2); also called ATCC PTA-7422) VH: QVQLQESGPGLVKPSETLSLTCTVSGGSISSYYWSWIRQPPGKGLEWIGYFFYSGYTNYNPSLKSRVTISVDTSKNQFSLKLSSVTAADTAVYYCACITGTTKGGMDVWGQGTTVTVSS VL: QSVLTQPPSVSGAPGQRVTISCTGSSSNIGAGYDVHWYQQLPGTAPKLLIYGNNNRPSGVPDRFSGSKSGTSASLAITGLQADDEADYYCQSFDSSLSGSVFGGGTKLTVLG; not satisfied

IN: Quick check: does mAb 7.158.2 (antibody, V domains shown, Kappa light chain (L5/JK3); also called 7.158.1; 7_158_1) VH: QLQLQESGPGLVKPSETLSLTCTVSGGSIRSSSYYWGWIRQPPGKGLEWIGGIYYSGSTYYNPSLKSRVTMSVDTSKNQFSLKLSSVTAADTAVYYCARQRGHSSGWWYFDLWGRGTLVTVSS VL: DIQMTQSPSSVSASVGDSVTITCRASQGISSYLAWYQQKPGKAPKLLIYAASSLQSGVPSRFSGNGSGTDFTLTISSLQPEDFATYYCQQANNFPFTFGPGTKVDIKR have EC50 (nM), mean (n = 2), IGF-II Proliferation Assay, NIH3T3/hIGF-IR cells under 20 nM?
OUT: not satisfied

IN: Quick check: does mAb 7.234.2 (antibody, V domains shown, Kappa light chain (L5/JK3); also called 7.234.1; 7_234_1) VH: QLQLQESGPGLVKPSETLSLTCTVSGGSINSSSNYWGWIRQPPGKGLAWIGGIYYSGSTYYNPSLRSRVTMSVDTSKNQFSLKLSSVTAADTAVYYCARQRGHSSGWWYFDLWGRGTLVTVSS VL: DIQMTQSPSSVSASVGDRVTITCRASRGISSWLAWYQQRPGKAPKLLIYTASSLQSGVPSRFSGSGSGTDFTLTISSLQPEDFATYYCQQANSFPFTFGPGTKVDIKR have EC50 (nM), mean (n = 2), IGF-II Proliferation Assay, NIH3T3/hIGF-IR cells under 20 nM?
OUT: not satisfied
